Tested on: CCRIS mutagenicity, Ames/micronucleus/aberration tests
assay-comment: CCRIS mutagenicity studies
stated-conditions: Test System: AMES SALMONELLA TYPHIMURIUM; Strain/Indicator: TA98(NR); Metabolic Activation: RAT, LIVER, S-9, AROCLOR 1254
Calls of active or inactive are those of the source. No rule for the calls is given here.

smiles-record	tested-target	mutagenic call
O=[N+]([O-])c1ccc2c(ccc3cc4c(ccc5ccccc54)cc32)c1	CCRIS mutagenicity, Ames/micronucleus/aberration tests	active; positive
Nc1ccc2ccc3cc4ccccc4c4ccc1c2c34	CCRIS mutagenicity, Ames/micronucleus/aberration tests	active; positive
O=[N+]([O-])c1ccc2ccc3cc4c(c5ccc1c2c35)C=C[C@H](O)[C@H]4O	CCRIS mutagenicity, Ames/micronucleus/aberration tests	active; positive
O=[N+]([O-])c1ccc2ccc3cc4ccccc4c4ccc1c2c34	CCRIS mutagenicity, Ames/micronucleus/aberration tests	active; positive
O=[N+]([O-])c1cc2c3c(c1)CCc1c4c(cc(c1-3)CC2)CCCC4	CCRIS mutagenicity, Ames/micronucleus/aberration tests	active; positive
